All figures here come from ChEMBL document CHEMBL2029206.

# METHOD SUMMARY: Inhibition of Escherichia coli NAD+dependent DNA ligase
Would you mind sorting the entries by IC50 according to these classes? lower bin = under 40 nM, middle bin = from 40 nM up to 80 nM, upper bin = 80 nM and over

[[record]]
molecule = "C[C@H]1CCCC[C@H]1Oc1nc(N)c2c(=O)ccn(CC3C[C@@H](O)[C@@H](O)C3)c2n1 (stereo not given in full)"
class = "middle bin"

[[record]]
molecule = "C[C@H]1CCCC[C@H]1Oc1nc(N)c2c(=O)ccn([C@@H]3CCCC[C@H]3O)c2n1"
class = "upper bin"

[[record]]
molecule = "Nc1nc(SC2CCCC2)nc2c1c(=O)ccn2[C@H]1CCC[C@@H]1O (relative stereo)"
class = "middle bin"

[[record]]
molecule = "C[C@H]1CCCC[C@H]1Oc1nc(N)c2c(=O)ccn([C@@H]3COC[C@H]3O)c2n1"
class = "lower bin"

[[record]]
molecule = "C[C@H]1CC[C@H](Oc2nc(N)c3c(=O)ccn(Cc4ccc(C(=O)O)s4)c3n2)CC1"
class = "upper bin"

[[record]]
molecule = "C[C@H]1CCCC[C@H]1Oc1nc(N)c2c(=O)ccn([C@@H]3CC[C@@H]4C[C@H]3OC4=O)c2n1"
class = "lower bin"

[[record]]
molecule = "C[C@H]1CCCC[C@H]1Oc1nc(N)c2c(=O)ccn(CC3CC=CC3)c2n1 (relative stereo)"
class = "lower bin"

[[record]]
molecule = "C[C@H]1CC[C@H](Oc2nc(N)c3c(=O)ccn(C4[C@@H](O)CC[C@@H]4O)c3n2)CC1"
class = "middle bin"

[[record]]
molecule = "C[C@H]1CCCC[C@H]1Oc1nc(N)c2c(=O)ccn(Cc3cn[nH]c3)c2n1 (relative stereo)"
class = "lower bin"

[[record]]
molecule = "Nc1nc(OC2CCC3(CC2)OCCO3)nc2c1c(=O)ccn2[C@H]1CCC[C@@H]1O (relative stereo)"
class = "upper bin"

[[record]]
molecule = "C[C@H]1CC[C@H](Oc2nc(N)c3c(=O)ccn([C@H]4CC[C@H](O)[C@@H]4O)c3n2)CC1"
class = "upper bin"

[[record]]
molecule = "C[C@H]1CCCC[C@H]1Oc1nc(N)c2c(=O)ccn(CC(O)CF)c2n1 (relative stereo)"
class = "lower bin"

[[record]]
molecule = "Nc1nc(NC2CCCC2)nc2c1c(=O)ccn2CCO"
class = "upper bin"

